system: U251 CNS; experiment: NCI-60 one-dose screen, 48 h; details: 10 µM unless noted
This is part of a sample that, as a whole, favours compounds with a hit. Of some 83,000 tested, about 20% had one in any assay. Calls of active or inactive are those of the source. Rule for the calls: active = growth percent below 10; inactive = the rest.
Write down one outcome, taken from y for active, n for inactive

Some entries whose results are on file:
{"columns": ["compound", "class label"],
 "data": [
  ["CCn1cc(C(=O)N/N=C/c2cccc(F)c2)c(=O)c2cc(F)c(N3CCNC(C)C3)c(F)c21 (centres undefined)", "y"],
  ["COc1ccc(CNc2ccc3nc(NC(=O)CN4CCCCCC4)sc3c2)cc1", "n"],
  ["CC(C)CCC[C@@H](C)[C@H]1CC[C@H]2[C@@H]3CC=C4c5sc(Nc6cc(C(F)(F)F)cc(C(F)(F)F)c6)nc5CC[C@]4(C)[C@H]3CC[C@]12C", "n"]
]}

Ask: Hi, do you know how Nc1nc(C(=O)N/N=C/c2ccc(F)cc2)nn1-c1ccc(S(N)(=O)=O)cc1 came out in this test?
Result: n
